Molecular target: Oxytocin receptor (Homo sapiens)
Sequence (P30559 whole entry): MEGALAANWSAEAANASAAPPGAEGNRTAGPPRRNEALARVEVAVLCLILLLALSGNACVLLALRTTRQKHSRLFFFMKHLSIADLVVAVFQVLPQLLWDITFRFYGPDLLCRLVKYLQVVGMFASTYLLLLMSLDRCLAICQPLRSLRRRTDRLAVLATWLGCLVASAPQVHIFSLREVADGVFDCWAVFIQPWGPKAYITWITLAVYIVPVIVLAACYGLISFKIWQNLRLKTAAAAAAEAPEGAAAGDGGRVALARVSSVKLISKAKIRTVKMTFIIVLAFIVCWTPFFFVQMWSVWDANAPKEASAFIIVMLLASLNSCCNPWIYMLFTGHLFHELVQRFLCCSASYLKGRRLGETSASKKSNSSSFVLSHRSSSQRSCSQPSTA
Recorded endpoint: Ki (nM)
Number in nM, nothing else.

Prompt: Give the measured Ki of "CCCCOc1ccc(S(=O)(=O)N(CC(=O)N/N=C2\C(=O)Nc3ccccc32)c2ccc(Cl)cc2)cc1" .
Response: 17.8
